assay_system: EGFR wildtype (WT) (Homo sapiens, UniProt P00533)
Sequence (P00533 25-1210): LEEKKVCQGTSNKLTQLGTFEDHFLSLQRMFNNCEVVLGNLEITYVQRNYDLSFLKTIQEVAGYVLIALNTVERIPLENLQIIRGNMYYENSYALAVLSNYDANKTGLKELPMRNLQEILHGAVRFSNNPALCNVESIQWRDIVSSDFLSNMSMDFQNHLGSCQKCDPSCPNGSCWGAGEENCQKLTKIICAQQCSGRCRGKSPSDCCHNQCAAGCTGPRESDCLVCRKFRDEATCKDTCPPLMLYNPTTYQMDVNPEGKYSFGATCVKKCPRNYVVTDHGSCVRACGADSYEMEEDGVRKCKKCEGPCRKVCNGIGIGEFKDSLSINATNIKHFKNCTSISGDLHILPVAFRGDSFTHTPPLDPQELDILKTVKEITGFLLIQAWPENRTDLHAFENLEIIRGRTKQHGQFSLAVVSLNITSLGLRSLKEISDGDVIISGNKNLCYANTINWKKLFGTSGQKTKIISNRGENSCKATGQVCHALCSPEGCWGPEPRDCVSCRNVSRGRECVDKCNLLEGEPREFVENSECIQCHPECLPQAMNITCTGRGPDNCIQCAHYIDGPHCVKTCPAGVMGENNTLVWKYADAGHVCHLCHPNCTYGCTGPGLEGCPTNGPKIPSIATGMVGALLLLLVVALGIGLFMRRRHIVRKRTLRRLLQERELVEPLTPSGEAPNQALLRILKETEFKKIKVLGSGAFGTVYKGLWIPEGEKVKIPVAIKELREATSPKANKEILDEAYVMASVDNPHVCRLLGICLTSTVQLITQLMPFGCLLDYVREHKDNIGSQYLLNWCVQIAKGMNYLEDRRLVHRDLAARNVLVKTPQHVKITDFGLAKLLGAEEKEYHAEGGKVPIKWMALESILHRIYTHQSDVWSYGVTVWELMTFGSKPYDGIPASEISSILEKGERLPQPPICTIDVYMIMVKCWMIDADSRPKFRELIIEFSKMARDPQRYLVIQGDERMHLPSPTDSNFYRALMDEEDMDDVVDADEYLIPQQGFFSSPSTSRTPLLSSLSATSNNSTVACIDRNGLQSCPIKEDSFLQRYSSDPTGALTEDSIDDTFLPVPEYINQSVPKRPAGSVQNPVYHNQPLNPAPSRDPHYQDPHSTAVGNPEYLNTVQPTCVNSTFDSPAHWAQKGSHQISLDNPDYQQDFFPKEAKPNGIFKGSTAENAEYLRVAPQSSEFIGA
assay_procedure: Biochemical EGFR kinase assay (Lance Ultra TR-FRET), wildtype
condition_info: Km ATP; read-out: IC50 WT, Km ATP
attribute_measured: IC50 (nM)

molecule	unit_abbrev	IC50
C[C@]1(O)CC[C@@H](Nc2nc(Nc3ccnc(-c4cnn(CC(F)F)c4)c3)ncc2-c2ccn(C(F)F)n2)CC1 [Example 362]	nM	159

a = C[C@]1(O)CC[C@@H](Nc2nc(Nc3ccnc(-c4cnn(S(=O)(=O)C5CC5)c4)c3)ncc2-c2ccn(CC(F)(F)F)n2)CC1 [Example 360]
b = Cc1nn(CC(F)(F)F)cc1-c1cc(Nc2ncc(-c3ccn(C(F)F)n3)c(N[C@H]3CC[C@@](C)(O)CC3)n2)ccn1 [Example 368]
Which has the higher IC50, a or b ? Return value: the label identifying the chosen record.
a
(a: 140 nM, b: 33.6 nM)

* * *

assay_system: EGFR L858R/T790M/C797S (Homo sapiens, UniProt P00533, C797S/L858R/T790M)
Sequence (P00533 25-1210 T790M/C797S/L858R): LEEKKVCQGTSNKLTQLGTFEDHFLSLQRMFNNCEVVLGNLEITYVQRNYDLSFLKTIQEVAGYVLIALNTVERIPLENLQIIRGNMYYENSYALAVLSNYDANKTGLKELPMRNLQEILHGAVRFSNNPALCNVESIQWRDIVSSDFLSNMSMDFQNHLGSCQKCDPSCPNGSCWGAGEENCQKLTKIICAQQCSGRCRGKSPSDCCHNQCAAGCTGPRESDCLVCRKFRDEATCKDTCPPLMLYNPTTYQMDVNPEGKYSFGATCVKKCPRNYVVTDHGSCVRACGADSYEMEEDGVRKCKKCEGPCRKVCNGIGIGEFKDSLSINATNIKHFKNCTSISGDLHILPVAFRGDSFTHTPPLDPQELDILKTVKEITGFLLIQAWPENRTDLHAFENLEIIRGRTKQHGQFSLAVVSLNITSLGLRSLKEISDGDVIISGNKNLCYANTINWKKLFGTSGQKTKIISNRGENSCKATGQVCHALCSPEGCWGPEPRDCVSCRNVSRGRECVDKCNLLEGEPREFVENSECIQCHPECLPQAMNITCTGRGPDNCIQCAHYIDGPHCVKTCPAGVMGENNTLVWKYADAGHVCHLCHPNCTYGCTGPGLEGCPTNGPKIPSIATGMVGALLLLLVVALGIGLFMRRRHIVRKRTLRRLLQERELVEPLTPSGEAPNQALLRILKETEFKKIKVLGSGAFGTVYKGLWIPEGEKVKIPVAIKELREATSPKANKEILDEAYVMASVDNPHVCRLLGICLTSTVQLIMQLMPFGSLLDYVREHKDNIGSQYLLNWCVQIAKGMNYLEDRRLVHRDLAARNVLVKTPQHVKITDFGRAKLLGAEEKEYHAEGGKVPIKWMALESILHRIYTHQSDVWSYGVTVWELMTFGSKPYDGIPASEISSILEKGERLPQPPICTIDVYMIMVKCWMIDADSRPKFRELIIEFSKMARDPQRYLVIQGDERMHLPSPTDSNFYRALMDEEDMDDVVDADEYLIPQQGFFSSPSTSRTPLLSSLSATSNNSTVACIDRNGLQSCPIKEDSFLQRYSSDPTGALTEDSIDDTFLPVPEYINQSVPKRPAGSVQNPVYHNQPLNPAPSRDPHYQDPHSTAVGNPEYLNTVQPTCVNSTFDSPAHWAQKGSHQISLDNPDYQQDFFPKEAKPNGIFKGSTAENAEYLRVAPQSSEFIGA
assay_procedure: Biochemical EGFR kinase assay (Lance Ultra TR-FRET), triple mutant L858R/T790M/C797S
condition_info: Km ATP; read-out: IC50 L858R/T790M/C797S (nM) Km ATP
attribute_measured: IC50 (nM)

// worked examples, IC50 included
compound	unit_abbrev	reported_measurement
OCC[C@H]1CC[C@@H](Nc2cc(Nc3ccnc(-c4cnn(CC(F)F)c4)n3)ncc2-c2ccn(C(F)F)n2)CC1	nM	0.4
Cn1ccc(-c2cnc(Nc3ccnc(-c4cnn(S(=O)(=O)C5CC5)c4)n3)cc2N[C@H]2CC[C@H](CCO)CC2)n1	nM	0.1

P = O=C1CC[C@]2(CC[C@H](Nc3cc(Nc4ccnc(-c5cnn(S(=O)(=O)C6CC6)c5)n4)ncc3-c3ccn(C(F)F)n3)CC2)N1
Q = C=CCn1cc(-c2nccc(Nc3cc(N[C@H]4CC[C@@](C)(O)CC4)c(-c4ccn(C(F)F)n4)cn3)n2)cn1
Which has the higher IC50, P or Q ? Return value: the label identifying the chosen record.
Q
(Q: 0.7 nM, P: 0.1 nM)

P = O=S(=O)(C1CC1)n1cc(-c2nccc(Nc3cc(N[C@H]4CC[C@@H](CO)CC4)c(-c4ccn(CC(F)F)n4)cn3)n2)cn1
Q = CN(C)C(=O)C[C@H]1CC[C@@H](Nc2cc(Nc3ccnc(-c4cnn(S(=O)(=O)C5CC5)c4)n3)ncc2-c2ccn(C)n2)CC1
R = CN(C)CC1(C)CCC(Nc2cc(Nc3ccnc(-c4cnn(S(=O)(=O)C5CC5)c4)n3)ncc2-c2ccn(C(F)F)n2)CC1 (stereo not shown)
Arrange the 3 compounds by rising IC50, starting with the smallest. Answer by listing the labels in the order asked for.
P, Q, R

* * *

assay_system: EGFR L858R/T790M/C797S (Homo sapiens, UniProt P00533, C797S/L858R/T790M)
assay_procedure: Biochemical EGFR kinase assay (Lance Ultra TR-FRET), triple mutant L858R/T790M/C797S
condition_info: Km ATP; read-out: IC50 L858R/T790M/C797S (nM) Km ATP
attribute_measured: IC50 (nM)

compound	unit_abbrev	IC50
O=S(=O)(C1CC1)n1cc(-c2nccc(Nc3cc(NC4CCN(CCF)CC4)c(-c4ccn(C(F)F)n4)cn3)n2)cn1 [Example 217]	nM	0.4

P = CCOC(=O)c1ccn(-c2cnc(Nc3ccnc(-c4cnn(S(=O)(=O)C5CC5)c4)n3)cc2N[C@H]2CC[C@@](C)(O)CC2)n1 [Example 102]
Q = O=S(=O)(C1CC1)n1cc(-c2nccc(Nc3cc(N[C@H]4CC[C@@H](CN5CCC5)CC4)c(-c4ccn(CC(F)(F)F)n4)cn3)n2)cn1 [Example 272]
Parameter metric = IC50. Return the lower-valued option from P and Q . Return value: the label identifying the chosen record.
Q
(Q: 0.1 nM, P: 0.3 nM)

* * *

assay_system: EGFR L858R/T790M/C797S (Homo sapiens, UniProt P00533, C797S/L858R/T790M)
assay_procedure: Biochemical EGFR kinase assay (Lance Ultra TR-FRET), triple mutant L858R/T790M/C797S
condition_info: Km ATP; read-out: IC50 L858R/T790M/C797S (nM) Km ATP
attribute_measured: IC50 (nM)

// worked examples, IC50 included
compound	assay_system	unit_abbrev	reported_measurement
CC(C)(O)[C@H]1CC[C@@H](Nc2cc(Nc3ccnc(-c4cnn(S(=O)(=O)C5CC5)c4)n3)ncc2-c2ccn(CCC(F)(F)F)n2)CC1 [Example 300]	EGFR L858R/T790M/C797S (Homo sapiens, UniProt P00533, C797S/L858R/T790M)	nM	0.8
O=S(=O)(C1CC1)n1cc(-c2nccc(Nc3cc(N[C@H]4CC[C@@H](F)CC4)c(-c4ccn(CC(F)(F)F)n4)cn3)n2)cn1 [Example 305]	EGFR L858R/T790M/C797S (Homo sapiens, UniProt P00533, C797S/L858R/T790M)	nM	5.3
O=S(=O)(C1CC1)n1cc(-c2nccc(Nc3cc(NC[C@H]4CC[C@H](O)CC4)c(-c4ccn(C(F)F)n4)cn3)n2)cn1 [Example 31]	EGFR L858R/T790M/C797S (Homo sapiens, UniProt P00533, C797S/L858R/T790M)	nM	0.2
CN(C)C[C@]1(O)CC[C@@H](Nc2cc(Nc3ccnc(-c4cnn(S(=O)(=O)C5CC5)c4)n3)ncc2-c2ccn(C)n2)CC1 [Example 230]	EGFR L858R/T790M/C797S (Homo sapiens, UniProt P00533, C797S/L858R/T790M)	nM	0.2
C[C@]1(O)CC[C@@H](Nc2cc(Nc3ccnc(-c4cnn(C(F)F)c4)n3)ncc2-c2ccn(C(F)F)n2)CC1 [Example 149]	EGFR L858R/T790M/C797S (Homo sapiens, UniProt P00533, C797S/L858R/T790M)	nM	2.7
CCS(=O)(=O)n1cc(-c2nccc(Nc3cc(N[C@H]4CC[C@@](C)(O)CC4)c(-c4ccn(C(F)F)n4)cn3)n2)cn1 [Example 308]	EGFR L858R/T790M/C797S (Homo sapiens, UniProt P00533, C797S/L858R/T790M)	nM	0.2

1 = C[C@]1(O)CC[C@@H](Nc2cc(Nc3ccnc(-c4cnn(C5CC5)c4)n3)ncc2-c2ccn(C(F)F)n2)CC1 [Example 140]
2 = O=S(=O)(C1CC1)n1cc(-c2nccc(Nc3cc(NC4CCC(CCO)CC4)c(-c4ccn(C(F)F)n4)cn3)n2)cn1 (stereo not shown) [Example 133]
3 = C[C@]1(O)CC[C@@H](Nc2cc(Nc3ccnc(-c4cnn(S(=O)(=O)C5CC5)c4)n3)ncc2-n2ccc(C(F)(F)F)n2)CC1 [Example 167]
4 = Cn1ccc(-c2cnc(Nc3ccnc(-c4cnn(S(=O)(=O)C5CC5)c4)n3)cc2N[C@H]2CCC[C@H](CO)C2)n1 [Example 233]
Could you please sort these 4 entries by IC50 from high to low? Answer by listing the labels in the order asked for.
1, 3, 4, 2

P = CC(C)(O)[C@H]1CC[C@@H](Nc2cc(Nc3ccnc(-c4cnn(S(=O)(=O)C5CC5)c4)n3)ncc2-c2cc3n(n2)CCCC3)CC1 [Example 61]
Q = CN(C)C[C@H]1C[C@H](CNc2cc(Nc3ccnc(-c4cnn(S(=O)(=O)C5CC5)c4)n3)ncc2-c2ccn(C)n2)C1 [Example 239]
Parameter metric = IC50. Return the lower-valued option from P and Q . Return value: the label identifying the chosen record.
Q

* * *

assay_system: EGFR del19/C797S (Homo sapiens, UniProt P00533, C797S/DEL746-750)
Sequence (P00533 with tags, fused parts or gaps DEL746-750/C797S): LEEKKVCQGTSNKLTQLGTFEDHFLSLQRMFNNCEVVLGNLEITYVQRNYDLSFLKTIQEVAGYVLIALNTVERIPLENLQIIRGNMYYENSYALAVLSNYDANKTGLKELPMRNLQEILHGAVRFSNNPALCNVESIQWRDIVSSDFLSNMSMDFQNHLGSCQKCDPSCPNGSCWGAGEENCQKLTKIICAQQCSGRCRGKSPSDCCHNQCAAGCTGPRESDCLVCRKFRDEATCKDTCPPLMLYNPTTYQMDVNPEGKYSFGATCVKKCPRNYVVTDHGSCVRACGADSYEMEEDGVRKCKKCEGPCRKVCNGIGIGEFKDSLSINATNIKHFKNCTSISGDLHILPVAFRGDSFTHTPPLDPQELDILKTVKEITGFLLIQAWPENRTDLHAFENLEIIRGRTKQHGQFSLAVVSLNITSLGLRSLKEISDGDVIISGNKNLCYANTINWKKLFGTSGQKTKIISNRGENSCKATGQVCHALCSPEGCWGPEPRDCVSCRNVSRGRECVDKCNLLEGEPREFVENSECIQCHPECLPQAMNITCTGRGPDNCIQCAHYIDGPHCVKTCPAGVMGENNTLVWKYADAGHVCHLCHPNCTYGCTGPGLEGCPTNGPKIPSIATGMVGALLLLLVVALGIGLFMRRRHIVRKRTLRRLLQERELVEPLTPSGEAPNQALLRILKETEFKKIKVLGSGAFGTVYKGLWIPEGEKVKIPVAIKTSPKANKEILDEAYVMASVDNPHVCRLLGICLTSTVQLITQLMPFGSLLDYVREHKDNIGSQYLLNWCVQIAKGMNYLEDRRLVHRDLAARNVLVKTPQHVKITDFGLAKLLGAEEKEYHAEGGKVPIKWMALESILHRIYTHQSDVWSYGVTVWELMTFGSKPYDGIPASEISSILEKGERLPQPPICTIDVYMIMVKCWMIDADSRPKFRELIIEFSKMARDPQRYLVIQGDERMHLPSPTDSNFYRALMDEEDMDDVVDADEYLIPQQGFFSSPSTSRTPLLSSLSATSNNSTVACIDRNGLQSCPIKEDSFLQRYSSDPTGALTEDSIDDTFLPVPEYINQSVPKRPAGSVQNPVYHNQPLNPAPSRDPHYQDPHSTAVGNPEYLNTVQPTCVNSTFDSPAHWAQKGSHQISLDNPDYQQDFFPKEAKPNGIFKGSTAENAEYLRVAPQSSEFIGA
assay_procedure: Biochemical EGFR kinase assay (Lance Ultra TR-FRET), double mutant del19/C797S
condition_info: Km ATP; read-out: IC50 del19/C797S (nM) Km ATP
Experimental: Biochemical EGFR kinase assays were conducted using Lance Ultra time-resolved fluorescence resonance energy transfer (TR-FRET) technology from Perkin-Elmer. […] Each kinase reactions were incubated at room temperature for 1 hour and then stopped by the addition of 4 μL of stop solution (10 mM EDTA). […] After 60 minutes incubation at room temperature the LANCE signal was measured on an EnVision Multilabel Reader (Perkin-Elmer). […]
attribute_measured: IC50 (nM)

compound	unit_abbrev	IC50
Cn1ccc(-c2cnc(Nc3ccnc(-c4cnn(S(=O)(=O)C5CC5)c4)n3)cc2N[C@H]2CCC[C@H](CO)C2)n1	nM	0.5

I = CN(C)C[C@H]1CC[C@H](CNc2cc(Nc3ccnc(-c4cnn(S(=O)(=O)C5CC5)c4)n3)ncc2-c2csc(C(F)(F)F)n2)CC1
II = O=S(=O)(C1CC1)n1cc(-c2nccc(Nc3cc(NC4CCC(F)(F)C4)c(-c4ccn(C(F)F)n4)cn3)n2)cn1 (stereo not drawn)
Parameter metric = IC50. Return the lower-valued option from I and II . Return value: the label identifying the chosen record.
I

Data provenance: patent US12258327B2
